- ASSAY REMARKS: ATP-based viability loss in HEK293T cells – cell-based, CellTiter-Glo luminescence, dry powder samples, set 14, cytotoxicity control, dose response (AID 743442)
- TEST PARAMETERS: HEK293T viability, ATP luminescence (CellTiter-Glo), 72 h; at 26 µM (top of the series)
Active and inactive are the calls of the source.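 The calls were made as follows: active = cell-killing curve, signal falling, whose fitted AC50 is at most twice the top tested dose; inconclusive = flat fit with a moderate signal drop, or a poor fit; inactive = the rest.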

STRUCTURE NOTATION	activity change, negative = cytotoxicity
O=C(CSc1c2c(nc3ccc(Cl)cc13)CCCC2)NCc1cccnc1	-3.63% (inactive)
COc1cc(C(=O)NCCCN(C)C)ccc1OCC(=O)Nc1cccc(C(F)(F)F)c1	-18.3% (inactive)
CCN(CC)C(=O)CSc1c2c(nc3ccc(Cl)cc13)CCCC2	0.809% (inactive)
O=C(COc1ccccc1C(=O)NCCOc1ccc(Cl)cc1)Nc1cccc(Cl)c1	-30.7% (inactive)
O=C(CSc1ccc2ccccc2n1)NCc1ccco1	-3.39% (inactive)
CN(C(=O)COc1ccccc1C(N)=O)c1ccccc1	-5.5% (inactive)
COCCN(Cc1ccco1)C(=O)CSc1c2c(nc3cc(Cl)ccc13)CCCC2	-8.9% (inactive)
O=C(CSc1c2c(nc3ccc(Cl)cc13)CCCC2)NCc1ccccn1	-4.85% (inactive)
O=C(CSc1c2c(nc3ccc(Cl)cc13)CCCC2)NCc1ccco1	-6.1% (inactive)
O=C(CSc1c2c(nc3ccc(Cl)cc13)CCCC2)NCc1cccs1	-5.31% (inactive)
CCOC(=O)C1CCN(C(=O)c2ccc(OCC(=O)N3CCOCC3)c(OC)c2)CC1	-7.89% (inactive)
CN(CCOc1ccccc1)C(=O)c1ccc(OCC(=O)Nc2cccc(C(F)(F)F)c2)cc1	-0.662% (inactive)
CN(CCNC(=O)CSc1c2c(nc3ccc(Cl)cc13)CCCC2)Cc1ccccc1	-3.21% (inactive)
Cn1cc(SCC(=O)NCc2ccco2)c2ccccc21	-10.8% (inactive)
CN(C(=O)COc1ccc(Cl)cc1C(N)=O)c1ccccc1	1.16% (inactive)
O=C(CSc1c2c(nc3ccc(Cl)cc13)CCCC2)NCCCc1ccccc1	-6.44% (inactive)
Cc1cccc(NC(=O)CSc2c3c(nc4ccc(Cl)cc24)CCCC3)n1	-9.51% (inactive)
CCCCOc1ccc(NC(=O)COc2ccccc2C(=O)NCCOc2ccccc2)cc1	-30.8% (inactive)
O=C(CSc1c2c(nc3ccc(Cl)cc13)CCCC2)NCc1ccc(F)cc1	-14.3% (inactive)
COc1ccc(N(Cc2cccs2)C(=O)COc2ccccc2C(=O)Nc2ccccc2)cc1	-7.68% (inactive)
Cc1cccc(CCNC(=O)CSc2c3c(nc4ccc(Cl)cc24)CCCC3)c1	-5.98% (inactive)
O=C(COc1ccc(C(=O)N2CCC2)cc1)Nc1cccc(C(F)(F)F)c1	-6.82% (inactive)
Cn1c(=O)cc(SCC(=O)NCc2ccco2)c2ccccc21	0.641% (inactive)
O=C(CSc1c2c(nc3ccc(Cl)cc13)CCCC2)N1CCC(N2CCCCC2)CC1	-3.26% (inactive)
O=C(CSc1c2c(nc3ccc(Cl)cc13)CCCC2)NCCN1CCN(Cc2ccccc2)CC1	-10.3% (inactive)
CCOC(=O)C1CCN(C(=O)c2ccc(OCC(=O)Nc3ccc(OCC)cc3)c(OC)c2)CC1	-2.45% (inactive)
CC(C)NC(=O)CSc1c2c(nc3ccc(Cl)cc13)CCCC2	-3.4% (inactive)
COc1ccc(NC(=O)CSc2c3c(nc4ccc(Cl)cc24)CCCC3)cc1	-8.96% (inactive)
O=C(COc1ccccc1C(=O)NCc1ccccc1)Nc1ccccc1	-5.85% (inactive)
Cc1ccc(CNC(=O)CSc2c3c(nc4ccc(Cl)cc24)CCCC3)cc1	-7.44% (inactive)
COCCNC(=O)CSc1c2c(nc3ccc(Cl)cc13)CCCC2	-7.42% (inactive)
CCCNC(=O)CSc1c2c(nc3ccc(Cl)cc13)CCCC2	-1.94% (inactive)
O=C(O)CSc1c2c(nc3cc(C(=O)NCc4cccs4)ccc13)CCCC2	-5.37% (inactive)
O=C(CSc1c2c(nc3ccc(Cl)cc13)CCCC2)NC1CCN(Cc2ccccc2)CC1	-3.75% (inactive)
CCOC(=O)N1CCC(NC(=O)CSc2c3c(nc4ccc(Cl)cc24)CCCC3)CC1	-0.517% (inactive)
O=C(CSc1c2c(nc3ccc(Cl)cc13)CCCC2)Nc1ccccc1	-10.7% (inactive)
O=C(CSc1c2c(nc3ccc(Cl)cc13)CCCC2)N1CCCCC1	-5.3% (inactive)
CC1(C)CC(NC(=O)c2ccc(OCC(=O)Nc3cccc(C(F)(F)F)c3)cc2)CC(C)(C)N1	-24.7% (inactive)
Cc1ccc(CNC(=O)CSc2c3c(nc4ccc(Cl)cc24)CCCC3)o1	-8.3% (inactive)
Cc1ccc2nc(Cl)cc(SCC(=O)NCc3ccco3)c2c1	-11.1% (inactive)
O=C(COc1ccc(C(=O)N2CCN(C(=O)C3CC3)CC2)cc1)Nc1cccc(C(F)(F)F)c1	-7.18% (inactive)
O=C(CSc1c2c(nc3ccccc13)CCCC2)NCc1ccco1	-6.44% (inactive)
COc1ccc(CNC(=O)CSc2c3c(nc4ccc(Cl)cc24)CCCC3)cc1	-6.81% (inactive)
